Please go through the items and note down their max response, negative = inhibition.
# measured on: Serine/threonine-protein kinase PLK1 (Homo sapiens) (UniProt P53350)
# Sequence (P53350 whole entry, looked up, the tested form may be a part): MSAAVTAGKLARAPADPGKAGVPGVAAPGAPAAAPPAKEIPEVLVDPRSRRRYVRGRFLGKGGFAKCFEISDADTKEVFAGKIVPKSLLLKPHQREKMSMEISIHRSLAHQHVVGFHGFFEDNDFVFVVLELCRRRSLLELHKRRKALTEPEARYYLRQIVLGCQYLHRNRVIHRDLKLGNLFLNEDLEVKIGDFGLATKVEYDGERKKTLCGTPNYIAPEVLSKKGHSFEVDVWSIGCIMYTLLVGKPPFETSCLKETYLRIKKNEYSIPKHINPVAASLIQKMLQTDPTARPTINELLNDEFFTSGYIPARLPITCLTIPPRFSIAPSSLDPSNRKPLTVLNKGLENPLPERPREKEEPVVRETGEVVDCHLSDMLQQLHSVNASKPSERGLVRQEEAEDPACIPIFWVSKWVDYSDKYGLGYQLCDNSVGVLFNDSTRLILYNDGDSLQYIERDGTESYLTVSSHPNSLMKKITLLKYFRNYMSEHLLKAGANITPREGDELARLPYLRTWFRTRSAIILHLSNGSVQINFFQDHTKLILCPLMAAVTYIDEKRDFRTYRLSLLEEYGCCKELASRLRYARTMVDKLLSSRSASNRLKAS
# protocol text: qHTS for Inhibitors of PLK1-PDB (polo-like kinase 1 - polo-box domain): Primary Screen; also: series mostly up to about 57 µM; % is scaled to controls: 0 for no effect and ±100 for the full control effect; nearly all actives have a fitted effect of over 65% in size
# condition: Plk1 PBD binding of FITC phosphopeptide, fluorescence polarization
In all, about 360,000 compounds went through this assay and about 10,000 (2.8%) were called active. Another 4% or so got no clear call; they are omitted. This is one part of a sample in which actives are shown more often than they occur.
Hi! Could you send only the number? It should be in %, unit omitted.

Qu. For the compound Cc1ccc(S(=O)(=O)N2CCCCC2)cc1NC(=O)CCNC(=O)c1ccccc1Cl , report max response, negative = inhibition.
Ans. -0.377

Qu. Specify max response, negative = inhibition for C[C@H]1CN(c2ccc(Br)cc2)C(=O)[C@@H]1CC(=O)Nc1ccc(Br)cc1 and stop.
Ans. 1

Qu. Identify measured max response, negative = inhibition associated with COc1ccc(C2CC(c3ccc([N+](=O)[O-])cc3)=NN2C(C)=O)cc1 (centres undefined)
Ans. -7.83

Qu. Please give the documented max response, negative = inhibition of FC(F)(F)c1ccccc1Cc1c(-c2ccccc2)nc2c3ccccc3ccn12
Ans. 5.06

Qu. Respond only with max response, negative = inhibition recorded for O=C(CN1CCN(Cc2ccccc2)CC1)NC(c1ccccc1)c1ccccc1
Ans. -13.1

Qu. Tell me its max response, negative = inhibition given CCNC(=O)C1(C)CCCN(Cc2noc(-c3ccccc3OC)n2)C1 (centres undefined) as the entry.
Ans. -4.99

Qu. Specify measured max response, negative = inhibition for O=C(CSc1nc2[nH]ncc2c(=O)[nH]1)Nc1ccc(F)cc1 .
Ans. -1.42

Qu. Read the entry COc1cccc(C(O)c2nc(-c3ccc(C)c(C)c3)cs2)c1 (centres undefined) and write its reported max response, negative = inhibition.
Ans. -8.07

Qu. Quick one: give measured max response, negative = inhibition for C[C@@H]1Cn2cnc(C(=O)Nc3ccc(CNC(=O)OC(C)(C)C)cc3)c2C(=O)N1
Ans. -11.4

Qu. Please indicate max response, negative = inhibition recorded for Cc1cccc(C)c1NC(=O)C(c1ccc(C(F)(F)F)cc1)n1c(=O)c(-c2ccco2)nc2ccccc21 (centres undefined)
Ans. -16.2

Qu. Supply max response, negative = inhibition value. Item: COc1ccc(S(=O)(=O)N2CCCCC2c2cc(C(=O)NCc3ccc(F)cc3)no2)cc1 (centres undefined)
Ans. 4.51

Qu. Consider the compound COc1ccc(CNC(=O)c2ccc(-c3cccnc3)c3ccoc23)cc1OC . State its measured max response, negative = inhibition.
Ans. -7.35

Qu. Note down max response, negative = inhibition recorded for Cc1nc2ccccc2nc1CC(O)(c1ccccc1)c1ccccc1
Ans. -15.9

Qu. Please report the measured max response, negative = inhibition for C[C@H](CO)N1C[C@H](C)[C@H](CN(C)C(=O)Nc2ccc3c(c2)OCO3)Oc2ncc(Br)cc2C1=O
Ans. -14.4

Qu. Please supply the value of reported max response, negative = inhibition for the item CCCCCCn1c(SCC(=O)c2ccccc2)nc2c1c(=O)[nH]c(=O)n2C
Ans. -19.2

Qu. Please give the documented max response, negative = inhibition of CCCNC(=O)C1(C)CCN(Cc2ccc(Cl)c(Cl)c2)C1 (centres undefined)
Ans. -1.65

Qu. Give the value of max response, negative = inhibition reported for the following: COc1ccc(-n2c(-c3ccc(Cl)cc3)n[nH]c2=S)c(OC)c1
Ans. -18.3

Qu. Give reported max response, negative = inhibition value for COc1ccccc1-n1c(SCC(=O)Nc2ccc(Cl)cc2)nc(O)c(Cc2ccccc2)c1=O
Ans. -10.5

Qu. Give me measured max response, negative = inhibition, please, for this compound: COC(=O)c1ccc2nc(-c3ccc(Cl)cc3)c(Cc3cccc(F)c3)n2c1
Ans. 1.38
